Ki reference
# system.tested: HCV genotype 1b (BK) NS3 modified enzyme with a R155K mutation (Hepatitis C virus genotype 1b, UniProt P26663, R1181K)
# Construct: HCV genotype 1b (BK) NS3 modified enzyme
# measurement.notes: HCV NS3 protease time-resolved fluorescence (TRF) assay, genotype 1b R155K
# Assay type: biochemical
# details: Ki 1b R155K, genotype 1b (BK) NS3 R155K; single value

- molecule: "C=C[C@@H]1C[C@]1(NC(=O)[C@@H]1C[C@@H]2CN1C(=O)[C@H](C1CCCC1)NC(=O)O[C@@H]1CCC[C@H]1CC/C=C/Cc1c(nc3ccccc3c1OCCCN1CCCC1=O)O2)C(=O)NS(=O)(=O)C1CC1 [Example 78]"
  value.unit: "nM"
  Ki: 0.08
- molecule: "C=C[C@@H]1C[C@]1(NC(=O)[C@@H]1C[C@@H]2CN1C(=O)[C@H](C1CCCC1)NC(=O)O[C@@H]1CCC[C@H]1CC/C=C/Cc1c(nc3ccccc3c1OCCCCO)O2)C(=O)NS(=O)(=O)C1CC1 [Example 68]"
  value.unit: "nM"
  Ki: 0.16
- molecule: "C=C[C@@H]1C[C@]1(NC(=O)[C@@H]1C[C@@H]2CN1C(=O)[C@H](C1CCCC1)NC(=O)O[C@@H]1CCC[C@H]1CC/C=C/Cc1c(nc3ccccc3c1OCCCN1CCOCC1)O2)C(=O)NS(=O)(=O)C1CC1 [Example 87]"
  value.unit: "nM"
  Ki: 0.24
- molecule: "CN1CCN(CCCOc2c3c(nc4ccccc24)O[C@@H]2C[C@H]4C(=O)N[C@]5(C(=O)NS(=O)(=O)C6(C)CC6)C[C@H]5/C=C\\CCCCC[C@H](NC(=O)O[C@@H]5C[C@H]5CCC/C=C/3)C(=O)N4C2)CC1 [Example 304]"
  value.unit: "nM"
  Ki: 0.078

###

Measured Ki accompanies every entry in the list below.
# system.tested: HCV NS3 protease genotype 3a (3A-1) (Hepatitis C virus genotype 3a)
# measurement.notes: HCV NS3 protease time-resolved fluorescence (TRF) assay, genotype 3a
# Format: biochemical
# details: Ki 3a
quantity.name: Ki (nM)

- sample.smiles: "C=C[C@@H]1C[C@]1(NC(=O)[C@@H]1C[C@@H]2CN1C(=O)[C@H](C(C)(C)C)NC(=O)O[C@@H]1C[C@H]1CCCCCc1c(nc3ccccc3c1OCCCN(C)Cc1ncc[nH]1)O2)C(=O)NS(=O)(=O)C1(C)CC1"
  system.tested: "HCV NS3 protease genotype 3a (3A-1) (Hepatitis C virus genotype 3a)"
  quantity.name: "Ki"
  experimental.value: 0.96
- sample.smiles: "C=C[C@@H]1C[C@]1(NC(=O)[C@@H]1C[C@@H]2CN1C(=O)[C@H](C1CCCC1)NC(=O)O[C@@H]1CCC[C@H]1CC/C=C/Cc1c(nc3ccccc3c1OCC)O2)C(=O)NS(=O)(=O)C1CC1"
  system.tested: "HCV NS3 protease genotype 3a (3A-1) (Hepatitis C virus genotype 3a)"
  quantity.name: "Ki"
  experimental.value: 6.1
- sample.smiles: "C=C[C@@H]1C[C@]1(NC(=O)[C@@H]1C[C@@H]2CN1C(=O)[C@H](C1CCCC1)NC(=O)O[C@@]1(C)C[C@@H]1CC/C=C/Cc1c(nc3ccccc3c1O)O2)C(=O)NS(=O)(=O)C1CC1"
  system.tested: "HCV NS3 protease genotype 3a (3A-1) (Hepatitis C virus genotype 3a)"
  quantity.name: "Ki"
  experimental.value: 22
- sample.smiles: "C=C[C@@H]1C[C@]1(NC(=O)[C@@H]1C[C@@H]2CN1C(=O)[C@H](C(C)(C)C)NC(=O)O[C@@H]1CCC[C@H]1CCCCCc1c(nc3ccccc3c1O)O2)C(=O)NS(=O)(=O)C1(COCc2ccccc2)CC1"
  system.tested: "HCV NS3 protease genotype 3a (3A-1) (Hepatitis C virus genotype 3a)"
  quantity.name: "Ki"
  experimental.value: 3.2
